From: patent US20130109682A1

Target system: PIM2 (Homo sapiens)
Sequence (Q9P1W9 whole entry): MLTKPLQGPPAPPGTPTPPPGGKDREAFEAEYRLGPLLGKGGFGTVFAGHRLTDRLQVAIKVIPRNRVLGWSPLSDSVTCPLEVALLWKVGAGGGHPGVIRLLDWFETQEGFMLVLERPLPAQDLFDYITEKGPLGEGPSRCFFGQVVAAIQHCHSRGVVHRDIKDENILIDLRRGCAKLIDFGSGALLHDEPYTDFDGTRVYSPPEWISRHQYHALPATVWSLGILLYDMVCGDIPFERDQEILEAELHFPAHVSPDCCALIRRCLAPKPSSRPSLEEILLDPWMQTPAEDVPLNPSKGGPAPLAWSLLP
Assay notes: Pim 2 AlphaScreen assay (high ATP)
Type: biochemical
Measurement parameters: read-out: Pim2 IC50
Below, each entry is listed alongside its reported log10 IC50.
log10 IC50, nM

Guide cases for log10 IC50, answers given:
# Compound, log10 IC50
data = [
    ("CC(C)(C)[C@H]1O[C@@H](c2ccncc2NC(=O)c2nc(-c3ccccc3)cnc2N)C[C@@H](N)[C@@H]1O", 0.95),
    ("CC[C@@H]1O[C@H](c2ccncc2NC(=O)c2nc(-c3ccccc3)cnc2N)C[C@H](N)[C@@]1(C)O", 3.89),
    ("N[C@@H]1C[C@H](c2ccncc2NC(=O)c2ccnc(-c3c(F)cccc3F)n2)O[C@@H]2CCCC[C@]12O", 1.85),
    ("CC(C)C(=O)Nc1ccc(F)c(-c2nc(C(=O)Nc3cnccc3[C@H]3C[C@@H](N)[C@H](O)[C@@H](C(C)C)O3)ccc2F)c1F", 1.84),
    ("Nc1ncc(-c2ccccc2)nc1C(=O)Nc1cnccc1[C@@H]1C[C@H](N)[C@@H]2CCC[C@@H]2O1", 3.71),
    ("CNC(=O)c1ccc(F)c(-c2nc(C(=O)Nc3cnccc3C3C[C@@H](N)[C@H](O)[C@@H](C(C)C)O3)ccc2F)c1F (stereo in doubt)", 0.71),
]

Read the next record carefully.
Ask: Which log10 IC50 value is on record for "CC(C)[C@H]1C[C@@H](N)C[C@@H](c2ccncc2NC(=O)c2ccc(F)c(-c3c(F)cccc3F)n2)O1" ?
Reply: 2.20
